Consider the following IC50 values measured on GPR84 (Homo sapiens, UniProt Q9NQS5).
Sequence (Q9NQS5 whole entry): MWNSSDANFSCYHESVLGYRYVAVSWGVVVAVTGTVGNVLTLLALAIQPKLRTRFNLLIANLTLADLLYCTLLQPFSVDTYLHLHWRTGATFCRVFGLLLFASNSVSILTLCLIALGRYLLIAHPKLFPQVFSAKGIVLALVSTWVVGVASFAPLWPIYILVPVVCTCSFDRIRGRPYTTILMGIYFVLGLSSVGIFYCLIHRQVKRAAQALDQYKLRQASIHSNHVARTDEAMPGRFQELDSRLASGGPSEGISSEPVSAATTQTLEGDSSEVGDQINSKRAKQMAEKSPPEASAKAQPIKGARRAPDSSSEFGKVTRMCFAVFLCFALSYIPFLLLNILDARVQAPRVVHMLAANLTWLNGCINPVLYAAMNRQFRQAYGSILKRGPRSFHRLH

1. Cc1c2n(c(OC[C@@H]3COCCO3)cc1=O)CCc1cc(N3CCC(Oc4cccnc4)CC3)ccc1-2 ... 0.01 to 100 nM
2. Cc1c2n(c(OC[C@@H]3COCCO3)cc1=O)CCc1cc(C#N)ccc1-2 ... 500 to 1000 nM
3. COc1c(OCC(F)F)ccc2c1CCn1c(NCC3COCCO3)cc(=O)c(C)c1-2 (centres unmarked) ... 0.01 to 100 nM
4. Cc1c2n(c(OC[C@@H]3COCCO3)cc1=O)CCc1cc(OC3CN(C(=O)OC(C)(C)C)C3)ccc1-2 ... 0.01 to 100 nM
5. Cc1c2n(c(OC[C@@H]3COCCO3)cc1=O)CCc1cc(N3CCC(c4ccc(F)cc4)CC3)ccc1-2 ... 0.01 to 100 nM
6. Cc1c2n(c(OC[C@@H]3COCCO3)cc1=O)CCc1cc(C(=O)NC3CC3)ccc1-2 ... > 1000 nM

Query: Request the reported IC50 associated with Cc1c2n(c(OC[C@@H]3COCCO3)cc1=O)CCc1cc(N3CC(C)CC(C)C3)ccc1-2 (some centres unmarked)
Result: 0.01 to 100 nM

Query: Requested read-out: IC50. Entry: Cc1c2n(c(OC[C@@H]3COCCO3)cc1=O)CCc1cc(OCC3CCCOC3)ccc1-2 (some centres unmarked)
Result: 0.01 to 100 nM

====

Listing of recorded IC50 by entry.
# Test system: human neutrophils
# ASSAY_DETAILS: Human neutrophil migration assay
# Assay type: cell-based
# EXPERIMENTAL_PARAMETERS: Homo sapiens, Neutrophil; embelin at EC80 as chemotactic agent; 1 h at 37° C.; read-out: Human neutrophil migration IC50

# annotated cases, reported IC50 shown
1) Cc1c2n(c(OC[C@@H]3COCCO3)cc1=O)CCc1cc(C3CN(C(=O)OC(C)(C)C)C3)ccc1-2 ... 0.01 to 100 nM
2) Cc1c2n(c(OC[C@@H]3COCCO3)cc1=O)CCc1cc(OCC3CCOCC3)ccc1-2 ... 0.01 to 100 nM
3) Cc1c2n(c(OC[C@@H]3COCCO3)cc1=O)CCc1cc(N3CC(n4cccn4)C3)ccc1-2 ... 100 to 500 nM
4) Cc1c2n(c(NCC3CCCCO3)cc1=O)CCc1cc(OCC(F)F)ccc1-2 (stereo not drawn) ... 100 to 500 nM
5) COC(=O)N1CC=C(c2ccc3c(c2)CCn2c(OC[C@@H]4COCCO4)cc(=O)c(C)c2-3)CC1 ... 0.01 to 100 nM
6) COc1ccc2c(c1OC)CCn1c(NCC3COCCO3)cc(=O)cc1-2 (stereo not drawn) ... > 1000 nM

Query: So what does the record say about IC50 for COc1ccc2c(c1OC)CCn1c(OCC3CCCO3)cc(=O)c(C)c1-2 (stereo not drawn) ?
Result: 0.01 to 100 nM

Query: Using the record for `Cc1c2n(c(OC[C@@H]3COCCO3)cc1=O)CCc1cc(OCc3cccc(OC(F)(F)F)c3)ccc1-2` , report its IC50.
Result: 0.01 to 100 nM

Query: I would be grateful if you could share the reported IC50 for `Cc1c2n(c(NC[C@@H]3CCCO3)cc1=O)CCc1cc(OCC(F)(F)F)ccc1-2` .
Result: 0.01 to 100 nM

Query: I am curious: what IC50 value has been reported for COc1ccc2c(c1OC)CCn1c(NCC3COCCO3)cc(=O)c(C)c1-2 (stereo not drawn) ?
Result: 100 to 500 nM

Query: Recorded IC50 of Cc1ccc(COc2ccc3c(c2)CCn2c(OCC4CCCO4)cc(=O)c(C)c2-3)cn1 (stereo not drawn) , please.
Result: 0.01 to 100 nM

====

# ASSAYED_TARGET: GPR84 (Homo sapiens, UniProt Q9NQS5)
# Construct: expressed in transfected cells
# ASSAY_DETAILS: GPR84 [35S]GTPγS binding assay
# Assay type: biochemical
# EXPERIMENTAL_PARAMETERS: 3,3′-diindolylmethane at EC80; membranes from stable cell line over expressing GPR84
OBSERVABLE: IC50

Query: Please give the measured IC50 for this compound: `Cc1c2n(c(OC[C@@H]3COCCO3)cc1=O)CCc1cc(C3CCN(C(=O)OC(C)(C)C)CC3)ccc1-2`
Result: 0.01 to 100 nM

Query: Find the recorded IC50 belonging to `Cc1c2n(c(OC[C@@H]3COCCO3)cc1=O)CCc1cc(OC3CN(C(=O)C4CC4)C3)ccc1-2` and report it.
Result: 100 to 500 nM

Query: Quick check: IC50 of `Cc1c2n(c(OC[C@@H]3COCCO3)cc1=O)CCc1cc(C3CCN(C(=O)OCC(F)(F)F)CC3)ccc1-2` ?
Result: 0.01 to 100 nM

Query: Recorded IC50 for `Cc1c2n(c(OC[C@@H]3COCCO3)cc1=O)CCc1cc(N3CCC(C(=O)N4CCCCC4)CC3)ccc1-2` , please?
Result: 0.01 to 100 nM

Query: For COc1ccc2c(c1OC)CCn1c(NCC3CCCCO3)cc(=O)c(C)c1-2 (stereo not shown) , what is its reported IC50?
Result: 0.01 to 100 nM

Query: // query IC50 value for entry `Cc1c2n(c(OC[C@@H]3COCCO3)cc1=O)CCc1cc(N3CC4(COC4)C3)ccc1-2`
Result: 500 to 1000 nM

Query: Record request: IC50 value, item `Cc1c2n(c(OC[C@@H]3COCCO3)cc1=O)CCc1cc(N3CC(n4cccn4)C3)ccc1-2`
Result: 0.01 to 100 nM

====

Measured pIC50 by item
# ASSAYED_TARGET: GPR84 (Homo sapiens, UniProt Q9NQS5)
# Construct: expressed in transfected cells
# ASSAY_DETAILS: GPR84 [35S]GTPγS binding assay
# Type: biochemical
# EXPERIMENTAL_PARAMETERS: 3,3′-diindolylmethane at EC80; membranes from stable cell line over expressing GPR84
pIC50: −log10 of the molar value.

# count of solved cases: 7
1) Cc1c2n(c(OC[C@@H]3COCCO3)cc1=O)CCc1cc(N3CCCCC3)ccc1-2 [Compound 115] ... 7.00 to 11.00
2) Cc1c2n(c(OCC3CCCCO3)cc1=O)CCc1cc(OCC3CCCOC3)ccc1-2 (centres unmarked) [Compound 48] ... 7.00 to 11.00
3) Cc1c2n(c(OC[C@@H]3COCCO3)cc1=O)CCc1cc(OCCF)ccc1-2 [Compound 159] ... 7.00 to 11.00
4) Cc1c2n(c(OC[C@@H]3COCCO3)cc1=O)CCc1cc(-c3cccc(F)c3)ccc1-2 [Compound 99] ... 7.00 to 11.00
5) CCn1cc(-c2ccc3c(c2)CCn2c(OC[C@@H]4COCCO4)cc(=O)c(C)c2-3)cn1 [Compound 40] ... 7.00 to 11.00
6) Cc1c2n(c(OC[C@@H]3COCCO3)cc1=O)CCc1cc(N3CCC(C)CC3)ccc1-2 [Compound 141] ... 7.00 to 11.00
7) COc1ccc2c(c1OC)CCn1c(NCC3COCCO3)cc(=O)cc1-2 (centres unmarked) [Compound 19] ... 6.00 to 6.30

Kindly consider the entry below.
Query: Using the record for CCc1c2n(c(NCC3CCCO3)cc1=O)CCc1cc(OCC(F)F)ccc1-2 (centres unmarked) [Compound 26] , report its pIC50.
Result: 6.00 to 6.30

====

pIC50: −log10 of the molar value.
Hi! I'm sharing some pIC50 results obtained with GPR84 (Homo sapiens, UniProt Q9NQS5).

Some compounds with known pIC50 results, for comparison:
1) Cc1c2n(c(NC[C@@H]3CCCO3)cc1=O)CCc1cc(OCC(F)(F)F)ccc1-2 [Compound 42] ... 7.00 to 11.00
2) Cc1c2n(c(NCC3CCCO3)cc1=O)CCc1cc(OCC3CC3(F)F)ccc1-2 (centres unmarked) [Compound 7] ... 7.00 to 11.00
3) Cc1ccnc(-c2ccc3c(c2)CCn2c(OC[C@@H]4COCCO4)cc(=O)c(C)c2-3)c1 [Compound 103] ... 7.00 to 11.00

Query: I'd like to know its pIC50. The compound in question is COc1ccc2c(c1OC)CCn1c(NCC3COCCO3)cc(=O)c(C)c1-2 (centres unmarked) [Compound 17]
Result: 7.00 to 11.00

Query: Can you look up the measured pIC50 of Cc1c2n(c(OC[C@@H]3COCCO3)cc1=O)CCc1cc(N3CCCC(F)(F)C3)ccc1-2 [Compound 123] for me?
Result: 7.00 to 11.00

Query: Can you share its pIC50? I mean this compound: Cc1c2n(c(OC[C@@H]3COCCO3)cc1=O)CCc1cc(-c3ccncc3)ccc1-2 [Compound 100]
Result: 7.00 to 11.00

Query: Which measured pIC50 value corresponds to Cc1c2n(c(OC[C@@H]3COCCO3)cc1=O)CCc1cc(C3=CCN(C(=O)OC(C)(C)C)CC3)ccc1-2 [Compound 74] ?
Result: 7.00 to 11.00

Query: Look up pIC50 for this compound: Cc1c2n(c(OC[C@@H]3COCCO3)cc1=O)CCc1cc(N3CCC[C@H]3C)ccc1-2 [Compound 134]
Result: 7.00 to 11.00
